- method.description: ATG_TCF_b_cat_CIS: Attagene CIS-FACTORIAL HepG2 Assay for human T-Cell-Factor with beta-catenin (TCF/b-cat) (AID 2282965)
- condition.description: HepG2 TCF/beta-catenin cis-reporter transcription, actives raise or lower the signal
- Description: ATG_CIS is a cell-based, multiplexed-readout assay that uses HepG2, a human liver cell line, with measurements taken at 24 hours after chemical dosing in a 24-well plate.ATG_TCF_b_cat_CIS is one of 52 assay component(s) measured or calculated from the ATG_CIS assay. […] This assay endpoint, ATG_TCF_b_cat_CIS, was analyzed with bidirectional fitting relative to DMSO as the negative control and baseline of activity. […]
Active and inactive are the calls of the source. How the source made its calls: active means hit-call score of the fitted dose curve at least 0.9, where 1 is the maximum; inactive means score below 0.9.
Outcome (select one): active, inactive

Task item: // param item: CCCCCC[C@@H](O)C/C=C\CCCCCCCC(=O)OCC(O)CO (stereo partly specified) ; yields the recorded call
Reply: inactive

Task item: // param item: CC(C)(C)C1CCC(=O)CC1 ; yields the recorded call
Reply: inactive

Task item: // param item: CCC1COC(=O)O1 (stereo unspecified) ; yields the recorded call
Reply: inactive

Task item: // param item: Clc1cc(Cl)c(Cl)c(Cl)c1Cl ; yields the recorded call
Reply: inactive

Task item: // param item: Cn1cccc1 ; yields the recorded call
Reply: inactive

Task item: // param item: CCC(=O)C1CC(C(C)C)CC=C1C (stereo unspecified) ; yields the recorded call
Reply: inactive

Task item: // param item: CC(C)CCOCc1ccccc1 ; yields the recorded call
Reply: inactive

Task item: // param item: CCCCCCCCCCCCC ; yields the recorded call
Reply: inactive

Task item: // param item: O=C(O[C@@H]1Cc2c(O)cc(O)cc2O[C@@H]1c1cc(O)c(O)c(O)c1)c1cc(O)c(O)c(O)c1 ; yields the recorded call
Reply: active
